TARGET ENTITY: [^3 H]-spiroperidol binding (receptor assay)
TEST: Inhibition of [^3 H]spiroperidol binding, receptor assay
Description: The compounds of Formula I are valuable dopaminergic agents. […]
Please use t for IC50 under 2000 nM and f for everything else, ties included.

> print(dat)
                              smiles.entry  class.name
1  C(#Cc1cnc2ccccc2c1)CCN1CCN(c2ccccn2)CC1           t

Hello, I'm reviewing records and need to know if IC50 of `O=[N+]([O-])c1ccc(C#CCCN2CCN(c3ccccn3)CC2)cc1` is below 2000 nM. Could you check?
f

Hello, I'm reviewing records and need to know if IC50 of `O=[N+]([O-])c1ccc(C#CCCN2CCN(c3ccccn3)CC2)nc1` is below 2000 nM. Could you check?
f

Hello, I'm reviewing records and need to know if IC50 of `Nc1ccc(C#CCCN2CCN(c3ccccn3)CC2)nc1` is below 2000 nM. Could you check?
t

Hello, I'm reviewing records and need to know if IC50 of `C(#Cc1cccnc1)CCN1CCN(c2ccccn2)CC1` is below 2000 nM. Could you check?
f

Hello, I'm reviewing records and need to know if IC50 of `Nc1ccc(C#CCCN2CCN(c3ccccn3)CC2)cc1` is below 2000 nM. Could you check?
t

Hello, I'm reviewing records and need to know if IC50 of `Fc1ccc(N2CCN(CCC#Cc3cccnc3)CC2)cc1` is below 2000 nM. Could you check?
f
